Measured IC50 of individual entries
System: Con-NCI-H82 cell
Assay: CellTiter-Glo cell viability inhibition, Con-NCI-H82 cell
Format: cell-based
Conditions: Homo sapiens, NCI-H82 cell transfected with empty virus vector

input smiles | tested target | unit | IC50
c1ccc([P+](c2ccccc2)(c2ccc3[nH]ccc3n2)c2cccc3[nH]ccc23)cc1 | Con-NCI-H82 cell | µM | 0.24
c1ccc([P+](c2ccccc2)(c2ccccc2)c2cccc3scnc23)cc1 | Con-NCI-H82 cell | µM | 1.35
c1ccc([P+](c2ccccc2)(c2ccccc2)c2cccc3[nH]cnc23)cc1 | Con-NCI-H82 cell | µM | 3.38
c1ccc([P+](c2ccccc2)(c2ccccc2)c2cccc3[nH]ccc23)cc1 | Con-NCI-H82 cell | µM | 0.23
COc1ccc([P+](c2ccc(OC)cc2)(c2cccc3nn(C)cc23)c2cccc3nn(C)cc23)cc1 | Con-NCI-H82 cell | µM | 2.86
COc1ccc([P+](c2ccc(OC)cc2)(c2cccc3nn(C)cc23)c2cccc3c2cnn3C)cc1 | Con-NCI-H82 cell | µM | 6.92
c1ccc([P+](c2ccccc2)(c2cnc3[nH]ccc3c2)c2cccc3[nH]ccc23)cc1 | Con-NCI-H82 cell | µM | 0.46
c1ccc([P+](c2ccccc2)(c2ccc3cc[nH]c3c2)c2ccc3cc[nH]c3c2)cc1 | Con-NCI-H82 cell | µM | 0.27
c1ccc([P+](c2ccccc2)(c2cccc3[nH]ccc23)c2ccnc3[nH]ccc23)cc1 | Con-NCI-H82 cell | µM | 0.34
[C-]#[N+]N=P(c1ccccc1)(c1ccccc1)c1ccccc1 | Con-NCI-H82 cell | µM | 5.51
c1ccc([P+](c2ccccc2)(c2cccc3[nH]ccc23)c2cncc3[nH]ccc23)cc1 | Con-NCI-H82 cell | µM | 0.63
c1ccc([P+](c2ccccc2)(c2cccc3[nH]ncc23)c2cccc3[nH]ncc23)cc1 | Con-NCI-H82 cell | µM | 13.8
c1ccc([P+](c2ccccc2)(c2ccccc2)c2cccc3[nH]ncc23)cc1 | Con-NCI-H82 cell | µM | 2.45
c1ccc([P+](c2ccccc2)(c2ccc3[nH]ccc3c2)c2ccc3[nH]ncc3c2)cc1 | Con-NCI-H82 cell | µM | 0.38
COc1ccc([P+](c2ccc(OC)cc2)(c2ccnc3c2ccn3C)c2cccc3c2cnn3C)cc1 | Con-NCI-H82 cell | µM | 1.49
c1ccc([P+](c2ccccc2)(c2ccc3cc[nH]c3n2)c2cccc3[nH]ccc23)cc1 | Con-NCI-H82 cell | µM | 0.32
c1ccc([P+](c2ccccc2)(c2cccnc2)c2ccc3cc[nH]c3c2)cc1 | Con-NCI-H82 cell | µM | 8.11
c1ccc([P+](c2ccccc2)(c2ccccc2)c2ccoc2)cc1 | Con-NCI-H82 cell | µM | 3.09
Cn1ccc2c([P+](c3ccccc3)(c3ccccc3)c3cccc4[nH]ccc34)cccc21 | Con-NCI-H82 cell | µM | 0.13
c1ccc([P+](c2ccccc2)(c2cccc3[nH]ccc23)c2cccc3[nH]cnc23)cc1 | Con-NCI-H82 cell | µM | 0.28
COc1ccc([P+](c2ccc(OC)cc2)(c2cc3cc[nH]c3cn2)c2cccc3[nH]ccc23)cc1 | Con-NCI-H82 cell | µM | 0.35
c1ccc([P+](c2ccccc2)(c2ccncc2)c2cccc3[nH]ccc23)cc1 | Con-NCI-H82 cell | µM | 3.66
c1ccc([P+](c2ccccc2)(c2ccccc2)c2cccc3cn[nH]c23)cc1 | Con-NCI-H82 cell | µM | 3.32
COc1ccc([P+](c2ccc(OC)cc2)(c2cccc3c2ccn3C)c2cccc3c2cnn3C)cc1 | Con-NCI-H82 cell | µM | 0.32
c1ccc([P+](c2ccccc2)(c2ccccc2)c2cccc3occc23)cc1 | Con-NCI-H82 cell | µM | 0.47
COc1ccc([P+](c2ccc(OC)cc2)(c2cccc3nn(C)cc23)c2cccc3c2ccn3C)cc1 | Con-NCI-H82 cell | µM | 0.86
COc1ccc([P+](c2ccc(OC)cc2)(c2cccc3c2ccn3C)c2cccc3c2ccn3C)cc1 | Con-NCI-H82 cell | µM | 0.14
